Data origin, for the record: paper doi:10.1101/2023.12.22.573000

Target Desc: T1, RIG-I (recombinant) (human? (GeneID 23586), UniProt O95786 1-925)
T1 sequence: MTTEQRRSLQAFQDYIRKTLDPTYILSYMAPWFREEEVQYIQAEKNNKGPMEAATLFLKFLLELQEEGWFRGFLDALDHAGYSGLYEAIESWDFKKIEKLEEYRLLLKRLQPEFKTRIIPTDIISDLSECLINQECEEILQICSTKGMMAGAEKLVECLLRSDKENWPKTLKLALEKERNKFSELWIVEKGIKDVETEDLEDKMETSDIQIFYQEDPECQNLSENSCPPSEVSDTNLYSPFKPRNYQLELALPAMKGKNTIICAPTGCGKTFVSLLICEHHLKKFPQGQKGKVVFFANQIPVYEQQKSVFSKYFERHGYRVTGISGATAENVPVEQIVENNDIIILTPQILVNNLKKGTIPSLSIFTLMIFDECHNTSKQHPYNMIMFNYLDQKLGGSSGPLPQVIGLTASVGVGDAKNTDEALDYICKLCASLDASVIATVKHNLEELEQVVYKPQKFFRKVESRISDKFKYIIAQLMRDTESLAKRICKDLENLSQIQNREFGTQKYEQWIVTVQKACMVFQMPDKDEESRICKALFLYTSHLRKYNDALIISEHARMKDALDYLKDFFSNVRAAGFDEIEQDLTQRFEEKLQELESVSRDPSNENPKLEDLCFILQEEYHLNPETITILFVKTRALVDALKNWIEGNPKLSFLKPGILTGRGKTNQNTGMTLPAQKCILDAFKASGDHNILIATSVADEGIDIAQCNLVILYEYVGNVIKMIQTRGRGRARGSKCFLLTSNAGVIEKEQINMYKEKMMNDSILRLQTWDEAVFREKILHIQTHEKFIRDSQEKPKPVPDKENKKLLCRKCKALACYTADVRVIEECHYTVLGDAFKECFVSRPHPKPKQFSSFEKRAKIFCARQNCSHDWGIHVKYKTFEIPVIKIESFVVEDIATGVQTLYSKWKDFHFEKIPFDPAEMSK
Test Protocol: EMSA
pKd: −log10 of the molar value.

# Binder, pKd
data = [
    ("5'-pppA synthetic 24 bp dsRNA (dsRNA, 5'-ppp on sense strand only) RNA 1: AGCAAAAGCAGGGUGACAAAGACA RNA 2: UGUCUUUGUCACCCUGCUUUUGCU", 9.40),
]
